# System: XIP peptide (Xip251-270)
# assay_protocol: small-molecule binders of XIP peptide, primary screen, biochemical, small-molecule microarray, fluorescence 635/667 nm, 0.5 µg/mL protein (AID 1183)
# experimental_parameters: small-molecule microarray binding, fluorescence 635 nm; higher = more signal
quantity_measured: composite z-score
Just the number, please, no unit attached.

1. CO[C@H]1O[C@H](CO)[C@@H](OC(=O)Nc2ccccc2)[C@H](OC(=O)Nc2ccccc2)[C@@H]1OC(=O)Nc1ccccc1 : 0.642
2. CC(=O)n1cc(C(O)C2C=CC3C(=O)N(c4ccccc4)C(=O)C3N2Nc2ccc([N+](=O)[O-])cc2)c2ccccc21 (stereo unspecified) : 0.87
3. Cc1ccc(S[C@]2(C(=O)NCCCN(C)C)CC(=O)N(Cc3ccccc3C(F)(F)F)[C@@H]2c2ccc(CO)cc2)cc1 : -0.328
4. O=C1C[C@@](C(=O)NC2CC2)(c2ccc([N+](=O)[O-])cc2)[C@@H](c2ccc(CO)cc2I)N1C1CCCCC1 : 0.693

Summary: O=C1O[C@@H](c2ccccc2)[C@@H](c2ccccc2)N2[C@@H](c3ccccc3OCCO)[C@]3(C(=O)Nc4ccc(C#CC5=CCCCC5)cc43)[C@@H](C(=O)N3CCCCCCC3)[C@H]12 , XIP peptide (Xip251-270), composite z-score = 0.797

Summary: COCCOC(=O)N1C(=O)[C@@]2(c3cc(C#CCC(C(=O)OC)C(=O)OC)ccc31)[C@H](C(=O)Nc1nc3ccccc3s1)[C@H]1C(=O)O[C@H](c3ccccc3)[C@H](c3ccccc3)N1[C@@H]2c1ccccc1OCCO , XIP peptide (Xip251-270), composite z-score = 0.813
